molecular target: hMC-4R (Homo sapiens, UniProt P32245); assay: Membrane binding assay, competition with fluorescence labeled NDP-alpha-MSH (fluorescence polarization); design: expressed in transfected cells; host or cells: HEK293 cells (membrane preparations); conditions: HEK293 cell membrane preparations
Sequence (P32245 whole entry): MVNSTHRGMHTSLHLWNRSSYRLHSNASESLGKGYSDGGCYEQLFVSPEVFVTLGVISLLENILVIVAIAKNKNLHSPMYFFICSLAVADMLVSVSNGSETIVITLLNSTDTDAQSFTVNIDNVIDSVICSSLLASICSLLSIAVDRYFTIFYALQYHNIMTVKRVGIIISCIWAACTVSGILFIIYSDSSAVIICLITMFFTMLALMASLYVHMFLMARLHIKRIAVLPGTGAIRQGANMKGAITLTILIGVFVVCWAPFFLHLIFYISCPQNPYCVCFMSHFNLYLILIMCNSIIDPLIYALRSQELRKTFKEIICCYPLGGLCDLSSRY
REPORTED METRIC: IC50

In the examples that follow, each entry is paired with its recorded IC50.
CC(C)CCN(CCC(C)C)C(=O)c1ccc2nc(CNc3ccc4c(c3)OCO4)c(CCCN3CCCC3)n2c1	< 100 nM
COc1cccc(N(C)c2nc3ccc(C(=O)N(CCC(C)C)CCC(C)C)cn3c2CCCN2CCCC2)c1	100 to 1000 nM
COCc1noc(-c2nc3ccc(C(=O)N(CCC(C)C)CCC(C)C)cn3c2CCCN2CCCC2)n1	< 100 nM
CCOC(=O)c1nc2ccc(C(=O)N(CCC(C)C)CCC(C)C)cn2c1CCCN(C)C	100 to 1000 nM
CCOC(=O)c1nc2ccc(C(=O)N(CCC(C)C)CCC(C)C)cn2c1CCCN1CCCC1	< 100 nM

Suppose we examine the compound `CNC(=O)c1nc2ccc(C(=O)N(CCC(C)C)CCC(C)C)cn2c1CCCN1CCCC1` ; what IC50 value has been reported?
100 to 1000 nM

Input `CC(C)CCN(CCC(C)C)C(=O)c1ccc2nc(-c3nc(C(C)(C)O)no3)c(CCCN(C)C)n2c1`
100 to 1000 nM

Input `CC(C)CCN(CCC(C)C)C(=O)c1ccc2nc(C#N)c(CCCN3CCCC3)n2c1`
> 1000 nM
